# EC50 listing for each entry below
# tgt: soluble guanylate cyclase (human GUCYA3/GUCYB3) overexpressed in CHO cells (Homo sapiens, UniProt Q02108+Q02153)
# Sequence (Q02108 1-690 partner): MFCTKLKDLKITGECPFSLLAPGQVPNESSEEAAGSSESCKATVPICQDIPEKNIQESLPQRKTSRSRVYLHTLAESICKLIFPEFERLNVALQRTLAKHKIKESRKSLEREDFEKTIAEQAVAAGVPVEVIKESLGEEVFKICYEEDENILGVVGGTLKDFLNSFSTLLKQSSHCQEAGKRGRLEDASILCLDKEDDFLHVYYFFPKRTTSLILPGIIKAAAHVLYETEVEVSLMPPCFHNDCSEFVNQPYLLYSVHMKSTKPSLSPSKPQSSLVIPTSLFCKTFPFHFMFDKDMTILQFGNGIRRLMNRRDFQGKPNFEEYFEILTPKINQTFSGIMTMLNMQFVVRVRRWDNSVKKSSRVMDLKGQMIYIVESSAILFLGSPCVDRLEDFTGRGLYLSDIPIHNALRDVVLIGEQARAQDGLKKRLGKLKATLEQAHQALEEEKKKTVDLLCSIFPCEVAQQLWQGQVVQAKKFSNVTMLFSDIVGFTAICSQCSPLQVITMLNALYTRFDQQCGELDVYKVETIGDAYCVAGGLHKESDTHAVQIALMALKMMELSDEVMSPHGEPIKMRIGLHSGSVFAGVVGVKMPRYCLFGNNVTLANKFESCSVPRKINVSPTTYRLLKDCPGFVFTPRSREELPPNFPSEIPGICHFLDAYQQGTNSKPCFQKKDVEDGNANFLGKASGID
# Sequence (Q02153 1-619): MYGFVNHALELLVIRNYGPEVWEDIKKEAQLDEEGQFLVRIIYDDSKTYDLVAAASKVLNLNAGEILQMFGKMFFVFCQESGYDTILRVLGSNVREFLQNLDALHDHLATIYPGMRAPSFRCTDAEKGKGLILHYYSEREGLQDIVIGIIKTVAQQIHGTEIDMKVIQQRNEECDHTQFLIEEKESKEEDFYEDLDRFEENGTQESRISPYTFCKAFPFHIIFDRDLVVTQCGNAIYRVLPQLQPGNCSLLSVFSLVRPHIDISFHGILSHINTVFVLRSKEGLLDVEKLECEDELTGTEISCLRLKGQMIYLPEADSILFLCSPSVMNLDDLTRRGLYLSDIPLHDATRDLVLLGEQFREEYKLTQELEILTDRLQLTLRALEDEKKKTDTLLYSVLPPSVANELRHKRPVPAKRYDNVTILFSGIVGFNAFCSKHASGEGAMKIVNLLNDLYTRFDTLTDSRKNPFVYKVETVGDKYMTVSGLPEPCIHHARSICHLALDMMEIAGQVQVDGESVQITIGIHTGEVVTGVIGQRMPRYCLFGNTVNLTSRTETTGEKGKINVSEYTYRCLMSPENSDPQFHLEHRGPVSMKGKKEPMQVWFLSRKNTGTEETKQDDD
# test-description: CHO cellular assay (cGMP production, HTRF)
# measurement-parameters: CHO K1 clone 8E10 overexpressing human sGC, Cisbio HTRF, 1 h room temperature, 1 mM IBMX, 20 uM ODQ, minimum quantification limit 0.5 nM

What measured EC50 goes with CCc1cc(COc2ccc(C3CCN(C(=O)C4CC4)CC3)cc2C)c(-c2cccc(-n3ncc(C(=O)O)c3C(F)(F)F)n2)s1 [Example 22-1] ?
2 nM

What measured EC50 goes with Cc1cc(C2CCN(C(=O)C3COC(C)(C)O3)CC2)ccc1OCc1ccsc1-c1cccc(-n2ncc(C(=O)O)c2C(F)(F)F)n1 (racemic) [Example 12-6] ?
48 nM

What measured EC50 goes with CCC(=O)N1CCC(c2cc(C)c(OCc3ccsc3-c3cccc(-n4ncc(C(=O)O)c4C(F)(F)F)n3)c(C)c2)CC1 [Example 4-1] ?
2 nM

Attribution: patent US9765067B2
